Counter-ions that a name gives are not always drawn.
Endpoint label: melting point

Known results for compounds:
COc1ccc(CCNc2ncnc3c2c(C)c(C)n3CCCN(C)C)cc1 (as salt: salt)    > 250 °C
Nc1ccc(CCNc2ncnc3c2ccn3Cc2ccccc2)cc1    > 260 °C

// moving on: another record for melting point
Prompt: // query melting point value for entry `Cc1c(C)n(Cc2ccccc2)c2ncnc(NCCc3ccc(NC(=O)Nc4cccc(C(F)(F)F)c4)cc3)c12`
Response: 161.9 to 162.9 °C

###

Structures can show the parent of a compound that is named as a salt.
Reported melting point is given for each of the following compounds.

Known results for compounds:
Cc1c(C)n(CCCN(C)C)c2ncnc(NCCc3ccccc3Cl)c12 (as salt: salt)    245 to 248 °C
Cc1c(C)n(Cc2ccccc2)c2ncnc(NCCc3ccc(N(C)C)cc3)c12    95 to 96.6 °C
Cc1c(C)n(Cc2cccc(Cl)c2)c2ncnc(NCCc3ccc(NS(C)(=O)=O)cc3)c12    125 to 129 °C

Prompt: // query melting point value for entry COc1ccc(CCNc2ncnc3c2c(C)c(C)n3CCCN(C)C)cc1OC (as salt: salt)
Response: 156 to 158.2 °C

Prompt: // query melting point value for entry Cc1c(C)n(CCCN(C)C)c2ncnc(NCCc3ccccc3)c12 (as salt: salt)
Response: 236 to 238 °C

Prompt: // query melting point value for entry `Cc1c(C)n(Cc2ccccc2)c2ncnc(NCCc3ccc(NS(=O)(=O)c4ccc(F)cc4F)cc3)c12`
Response: 183 to 185 °C
